Tested on: HepG2 (hepatocellular carcinoma) cell line
Details: human
Parameter Measured: SI HepG2/TM91C235

Here is how some compounds turned out for SI HepG2/TM91C235.
- CC(=O)O[C@H]1C[C@H]2[C@@H]([C@H](OC(C)=O)C[C@@H]3C[C@H](N(C)C)CC[C@@]32C)[C@@H]2CC[C@H]([C@H](C)CCCNCCNc3ccnc4cc(Cl)ccc34)[C@@]12C [Compound 50]: 714/333/435
- CC(=O)O[C@H]1C[C@H]2[C@@H]([C@H](OC(C)=O)C[C@@H]3CC(=O)CC[C@@]32C)[C@@H]2CC[C@H]([C@H](C)CCCNCCCNc3ccnc4cc(Cl)ccc34)[C@@]12C [Compound 23]: 161/182/121
- CC(=O)N[C@@H]1CC[C@@]2(C)[C@@H](C1)C[C@@H](OC(C)=O)[C@@H]1[C@@H]2C[C@H](OC(C)=O)[C@]2(C)[C@@H]([C@H](C)CCCNCCNc3ccnc4cc(Cl)ccc34)CC[C@@H]12 [Compound 36]: 126/116/126

We now examine a further compound.
Problem: I'd like to know its SI HepG2/TM91C235. The compound in question is CC(=O)O[C@H]1C[C@H]2[C@@H]([C@H](OC(C)=O)C[C@@H]3CC(NCCCNc4ccnc5cc(Cl)ccc45)CC[C@@]32C)[C@@H]2CC[C@H]([C@H](C)CCCNCCCNc3ccnc4cc(Cl)ccc34)[C@@]12C (mixture of isomers) [Compound 63]
Result: 43/32/24
